src = the RNAGym collection of RNA variant scans (doi:10.7554/elife.90254)

B1: LINE1-mini (parent)
chain: GGCAGAGCUCAACACAGCGUGGCAAAGUGGCUGUGGCUAGACUGCC

Variants of: B1
Assay: self-cleavage, relative activity (ratio to wild type); higher = more cleavage; in vitro, sequencing; the parent is a self-cleaving ribozyme
measure: self-cleavage
Lab note: jot down the number only; don't add units.

Given item A12U C31U , the value recorded as its self-cleavage is 0.09

Given item C3U A39C , the value recorded as its self-cleavage is 0.19

Given item G1C G44C , the value recorded as its self-cleavage is 0.03

Given item C31A A39G , the value recorded as its self-cleavage is 0.05

Given item G30A C31G , the value recorded as its self-cleavage is 0.09

Given item A6C G7U , the value recorded as its self-cleavage is 0.1

Given item G19A C45A , the value recorded as its self-cleavage is 0.79

Given item C3A G19U , the value recorded as its self-cleavage is 0.24

Given item C3U G22U , the value recorded as its self-cleavage is 0.82

Given item `G40C` , the value recorded as its self-cleavage is 0.09

Given item C31G G36A , the value recorded as its self-cleavage is 0.1

Given item C37G U43G , the value recorded as its self-cleavage is 0.05

Given item A26C A41G , the value recorded as its self-cleavage is 0.23

Given item G36U U38G , the value recorded as its self-cleavage is 0.02

Given item C15U G44C , the value recorded as its self-cleavage is 0.31

Given item G1C C3U , the value recorded as its self-cleavage is 0.18

Given item A25C A26U , the value recorded as its self-cleavage is 0.68

Given item U38C C42A , the value recorded as its self-cleavage is 0.07

Given item G5C G21U , the value recorded as its self-cleavage is 0.09

Given item A4C C15U , the value recorded as its self-cleavage is 0.13

Given item G5U G21A , the value recorded as its self-cleavage is 0.28

Given item G29U G36A , the value recorded as its self-cleavage is 0.17

Given item G7A A11C , the value recorded as its self-cleavage is 0.03

Given item A26C U28G , the value recorded as its self-cleavage is 0.66

Given item A4G C46A , the value recorded as its self-cleavage is 0.4

Given item C18G C45U , the value recorded as its self-cleavage is 0.13

Given item A12C G22U , the value recorded as its self-cleavage is 0.02

Given item A25C C31A , the value recorded as its self-cleavage is 0.09

Given item A14C U38A , the value recorded as its self-cleavage is 0.21

Given item C13A C31G , the value recorded as its self-cleavage is 0.06

Given item G27U U38A , the value recorded as its self-cleavage is 0.39

Given item G22U U32C , the value recorded as its self-cleavage is 0.6

Given item G33A G44C , the value recorded as its self-cleavage is 0.07

Given item C18U C37A , the value recorded as its self-cleavage is 0.09

Given item U34C U38C , the value recorded as its self-cleavage is 0.07

Given item A11G A24C , the value recorded as its self-cleavage is 0.03
